target: α5β1-fibronectin (Homo sapiens, UniProt P05556+P08648); construct: host or cells: K562 wild type; assay: Adhesion of wild-type K562 cells to immobilized fibronectin; format: cell-based; details: wild-type K562 (α5β1); 30 min at 37 °C; read-out: IC50 α5β1-fibronectin
Sequence (P08648 42-894 limits assumed): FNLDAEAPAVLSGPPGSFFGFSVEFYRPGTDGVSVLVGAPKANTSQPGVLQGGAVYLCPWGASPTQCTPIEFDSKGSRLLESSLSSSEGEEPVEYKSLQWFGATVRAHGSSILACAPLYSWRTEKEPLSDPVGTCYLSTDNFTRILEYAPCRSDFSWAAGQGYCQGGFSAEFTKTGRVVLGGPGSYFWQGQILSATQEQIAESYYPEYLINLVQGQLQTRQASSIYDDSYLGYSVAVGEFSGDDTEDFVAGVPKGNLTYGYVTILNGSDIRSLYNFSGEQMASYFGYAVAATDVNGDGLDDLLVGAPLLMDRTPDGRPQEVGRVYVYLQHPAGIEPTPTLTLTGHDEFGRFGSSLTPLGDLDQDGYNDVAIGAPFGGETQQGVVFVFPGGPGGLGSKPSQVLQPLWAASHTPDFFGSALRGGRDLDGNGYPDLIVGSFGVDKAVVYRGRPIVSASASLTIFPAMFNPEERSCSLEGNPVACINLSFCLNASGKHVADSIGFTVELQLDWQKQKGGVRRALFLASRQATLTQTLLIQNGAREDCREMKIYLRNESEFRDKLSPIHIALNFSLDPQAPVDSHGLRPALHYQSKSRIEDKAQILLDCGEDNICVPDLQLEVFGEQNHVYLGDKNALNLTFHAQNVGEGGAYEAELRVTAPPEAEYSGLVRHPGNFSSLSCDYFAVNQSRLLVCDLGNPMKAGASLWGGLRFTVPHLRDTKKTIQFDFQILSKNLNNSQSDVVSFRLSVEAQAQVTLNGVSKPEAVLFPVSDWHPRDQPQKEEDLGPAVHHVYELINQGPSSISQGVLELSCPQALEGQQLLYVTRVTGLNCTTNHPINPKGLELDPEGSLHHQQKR
Sequence (P08648 895-1049 limits assumed): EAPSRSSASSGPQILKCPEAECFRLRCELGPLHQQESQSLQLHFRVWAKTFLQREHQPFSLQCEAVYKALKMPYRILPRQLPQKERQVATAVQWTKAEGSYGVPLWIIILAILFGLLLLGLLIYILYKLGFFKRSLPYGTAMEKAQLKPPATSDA
Sequence (P05556 21-798): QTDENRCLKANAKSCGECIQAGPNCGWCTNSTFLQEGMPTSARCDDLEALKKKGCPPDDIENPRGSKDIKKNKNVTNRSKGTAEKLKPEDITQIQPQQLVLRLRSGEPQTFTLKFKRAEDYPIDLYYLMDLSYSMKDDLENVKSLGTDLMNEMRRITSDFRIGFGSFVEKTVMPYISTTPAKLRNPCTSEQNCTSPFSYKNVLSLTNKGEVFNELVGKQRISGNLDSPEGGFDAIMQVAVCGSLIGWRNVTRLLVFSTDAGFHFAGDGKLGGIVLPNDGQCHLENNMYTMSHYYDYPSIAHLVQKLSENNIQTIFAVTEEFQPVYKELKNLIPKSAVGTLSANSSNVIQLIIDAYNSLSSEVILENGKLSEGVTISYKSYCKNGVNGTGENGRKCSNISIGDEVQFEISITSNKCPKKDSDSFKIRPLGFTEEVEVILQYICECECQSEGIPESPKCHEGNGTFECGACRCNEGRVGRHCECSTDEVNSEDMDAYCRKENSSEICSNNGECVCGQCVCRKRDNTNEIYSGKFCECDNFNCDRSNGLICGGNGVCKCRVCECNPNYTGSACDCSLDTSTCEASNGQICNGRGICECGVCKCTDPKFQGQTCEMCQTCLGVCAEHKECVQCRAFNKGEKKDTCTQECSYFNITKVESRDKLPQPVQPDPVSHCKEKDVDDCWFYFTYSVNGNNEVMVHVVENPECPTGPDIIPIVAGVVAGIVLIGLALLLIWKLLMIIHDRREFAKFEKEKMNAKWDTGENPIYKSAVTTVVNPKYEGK
pIC50: −log10 of the molar value. Numbered stars: 1 amine (or outer) side, 2 acyl side, 3 side chain; on linkers, the order of the positions; unused ones are H or OH. Bridge positions count the residues as written; N and C are the ends. Square brackets hold non-standard residues; d marks the D form. Peptide text beside a SMILES is read from it. CO = O=C([*:1])[*:2]; Nlys = NCCCCNCC(=O)O
recordedMetric: pIC50

Short answer for CSCC[C@@H]1NC(=O)[C@H]([C@@H](C)O)NC(=O)CN(C(=O)[C@@H](N)CCCCN)CCCCNC(=O)NCCCCN(CC(=O)N[C@@H](CC(C)C)C(N)=O)C(=O)[C@H](CC(=O)O)NC(=O)[C@H](CC(C)C)NC1=O [visabron c (4–4)] (H-K[Nlys]TMLD[Nlys]L-NH2; linker 2-7 via CO) : pIC50 was < 2.00

---

molecular target: α4β1 (Jurkat lymphocytes-VCAM-1) (Homo sapiens, UniProt P05556+P13612); construct: host or cells: Jurkat (untreated or TNFα-treated); test: Adhesion of Jurkat lymphocytes to immobilized VCAM-1; type: cell-based; conditions: Jurkat treated with TNF-α (10 ng/mL) for 24 h; read-out: IC50 Jurkat lymphocytes-VACAM-1 TNFα
Sequence (P13612 34-1032, one chain of several): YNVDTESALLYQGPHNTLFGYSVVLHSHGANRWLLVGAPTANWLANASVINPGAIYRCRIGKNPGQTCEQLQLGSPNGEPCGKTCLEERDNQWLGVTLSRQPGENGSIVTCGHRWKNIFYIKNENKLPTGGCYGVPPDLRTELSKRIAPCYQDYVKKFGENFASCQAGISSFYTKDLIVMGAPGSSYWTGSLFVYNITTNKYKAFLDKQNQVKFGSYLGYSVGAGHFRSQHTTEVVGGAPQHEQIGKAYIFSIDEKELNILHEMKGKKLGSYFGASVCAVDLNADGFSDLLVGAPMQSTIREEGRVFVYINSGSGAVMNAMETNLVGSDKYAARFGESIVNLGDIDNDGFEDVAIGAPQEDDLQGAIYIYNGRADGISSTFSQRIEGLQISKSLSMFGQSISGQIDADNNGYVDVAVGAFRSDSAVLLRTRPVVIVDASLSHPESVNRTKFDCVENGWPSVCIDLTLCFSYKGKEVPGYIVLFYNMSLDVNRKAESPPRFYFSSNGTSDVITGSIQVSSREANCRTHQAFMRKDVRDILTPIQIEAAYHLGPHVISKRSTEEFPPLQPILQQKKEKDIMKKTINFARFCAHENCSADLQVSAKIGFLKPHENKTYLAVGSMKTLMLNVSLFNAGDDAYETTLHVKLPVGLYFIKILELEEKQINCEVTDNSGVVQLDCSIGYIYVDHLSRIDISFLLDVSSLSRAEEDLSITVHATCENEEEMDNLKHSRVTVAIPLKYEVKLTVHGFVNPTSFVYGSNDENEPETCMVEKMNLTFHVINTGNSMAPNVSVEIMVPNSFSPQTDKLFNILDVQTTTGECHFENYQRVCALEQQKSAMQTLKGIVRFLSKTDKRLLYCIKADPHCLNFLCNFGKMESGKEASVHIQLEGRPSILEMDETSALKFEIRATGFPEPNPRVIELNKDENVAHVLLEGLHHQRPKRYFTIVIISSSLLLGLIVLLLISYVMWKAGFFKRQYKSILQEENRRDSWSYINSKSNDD
Numbered stars: 1 amine (or outer) side, 2 acyl side, 3 side chain; on linkers, the order of the positions; unused ones are H or OH. Bridge positions count the residues as written; N and C are the ends. Square brackets hold non-standard residues; d marks the D form. Peptide text beside a SMILES is read from it. N(6-aminohexyl)Gly = O=C(CN(CCCCCCN[*:3])[*:1])[*:2]; N(2-Aminoethyl)Gly = O=C(CN(CCN[*:3])[*:1])[*:2]; CO = O=C([*:1])[*:2]; Nlys = NCCCCNCC(=O)O
recordedMetric: IC50 (µM)
Write down the numeric answer in µM and omit the unit.

Would you please look over these solved cases?
CSCC[C@@H]1NC(=O)[C@H]([C@@H](C)O)NC(=O)CN(C(=O)[C@@H](N)CCCCN)CCCCNC(=O)NCCCCN(CC(=O)N[C@@H](CC(C)C)C(N)=O)C(=O)[C@H](CC(=O)O)NC(=O)[C@H](CC(C)C)NC1=O [visabron c (4–4)] (H-K[Nlys]TMLD[Nlys]L-NH2; linker 2-7 via CO)	0.4
CSCC[C@@H]1NC(=O)[C@H]([C@@H](C)O)NC(=O)CN(C(=O)[C@@H](N)CCCCN)CCNC(=O)NCCN(CC(=O)N[C@@H](CC(C)C)C(N)=O)C(=O)[C@H](CC(=O)O)NC(=O)[C@H](CC(C)C)NC1=O [visabron c (2–2)] (H-K[N(2-Aminoethyl)Gly]TMLD[N(2-Aminoethyl)Gly]L-NH2; linker 2-7 via CO)	0.5

Below: the item to evaluate.
Entry CSCC[C@@H]1NC(=O)[C@H]([C@@H](C)O)NC(=O)CN(C(=O)[C@@H](N)CCCCN)CCCCCCNC(=O)NCCCCCCN(CC(=O)N[C@@H](CC(C)C)C(N)=O)C(=O)[C@H](CC(=O)O)NC(=O)[C@H](CC(C)C)NC1=O [visabron c (6–6)] (H-K[N(6-aminohexyl)Gly]TMLD[N(6-aminohexyl)Gly]L-NH2; linker 2-7 via CO) : IC50 on α4β1 (Jurkat lymphocytes-VCAM-1) (Homo sapiens, UniProt P05556+P13612) = 4
